Ref: the supplement of paper PMC3414501

# Test system: S. cerevisiae AD1-9 (efflux-pump deficient), vegetative growth in YPD
# Test Protocol: growth sensitivity score (doubling time z-score vs DMSO controls); higher = slower growth, strongly negative scores also mark growth inhibition (complete suppression), active = hit call of the paper
Structures can show the parent of a compound that is named as a salt.

[
  {
    "Molecule": "OCc1cc(C(O)CNCCCCCCOCCCCc2ccccc2)ccc1O (stereo unspecified) [Salmeterol] (stock concentration (mM, diluted 1:100): 10)",
    "Tested Target": "S. cerevisiae AD1-9 (efflux-pump deficient), vegetative growth in YPD",
    "growth sensitivity score": 41.2
  },
  {
    "Molecule": "Cc1ccsc1C(=CCCN1CCC[C@@H](C(=O)O)C1)c1sccc1C [Tiagabine hydrochloride] (stock concentration (mM, diluted 1:100): 9.1)",
    "Tested Target": "S. cerevisiae AD1-9 (efflux-pump deficient), vegetative growth in YPD",
    "growth sensitivity score": 0.07
  },
  {
    "Molecule": "CC(C)(C)NC(=O)[C@@H]1CN(Cc2cccnc2)CCN1C[C@@H](O)C[C@@H](Cc1ccccc1)C(=O)N[C@H]1c2ccccc2C[C@H]1O [Indinavir sulphate] (stock concentration (mM, diluted 1:100): 8.6)",
    "Tested Target": "S. cerevisiae AD1-9 (efflux-pump deficient), vegetative growth in YPD",
    "growth sensitivity score": -2.58
  },
  {
    "Molecule": "COC(=O)C1=C(C)NC(C)=C(C(=O)OC(C)C)C1c1cccc2nonc12 (stereo unspecified) [Isradipine] (stock concentration (mM, diluted 1:100): 9.9)",
    "Tested Target": "S. cerevisiae AD1-9 (efflux-pump deficient), vegetative growth in YPD",
    "growth sensitivity score": 137
  },
  {
    "Molecule": "Cc1cn([C@H]2C=C[C@@H](CO)O2)c(=O)[nH]c1=O [Stavudine] (stock concentration (mM, diluted 1:100): 10)",
    "Tested Target": "S. cerevisiae AD1-9 (efflux-pump deficient), vegetative growth in YPD",
    "growth sensitivity score": 0.68
  },
  {
    "Molecule": "CNCC[C@H](Oc1cccc2ccccc12)c1cccs1 [Duloxetine] (stock concentration (mM, diluted 1:100): 10)",
    "Tested Target": "S. cerevisiae AD1-9 (efflux-pump deficient), vegetative growth in YPD",
    "growth sensitivity score": 99.6
  },
  {
    "Molecule": "NC1CCN(c2nc3c(cc2F)c(=O)c(C(=O)O)cn3-c2ccc(F)cc2F)C1 (stereo unspecified) [Tosufloxacin tosylate] (stock concentration (mM, diluted 1:100): 7)",
    "Tested Target": "S. cerevisiae AD1-9 (efflux-pump deficient), vegetative growth in YPD",
    "growth sensitivity score": 1.02
  },
  {
    "Molecule": "CN1CCN2c3ncccc3Cc3ccccc3C2C1 (stereo unspecified) [Mirtazapine] (stock concentration (mM, diluted 1:100): 10)",
    "Tested Target": "S. cerevisiae AD1-9 (efflux-pump deficient), vegetative growth in YPD",
    "growth sensitivity score": 2.89
  },
  {
    "Molecule": "C[C@H]1O[C@H](O[C@H]2[C@H](O)[C@@H](O)[C@@H](O[C@H]3[C@H](O)[C@@H](O)C(O)O[C@@H]3CO)O[C@@H]2CO)[C@H](O)[C@@H](O)[C@@H]1N[C@H]1C=C(CO)[C@@H](O)[C@H](O)[C@H]1O (stereo partly specified) [Acarbose] (stock concentration (mM, diluted 1:100): 10)",
    "Tested Target": "S. cerevisiae AD1-9 (efflux-pump deficient), vegetative growth in YPD",
    "growth sensitivity score": -2.1
  },
  {
    "Molecule": "CC(=O)O[C@]1(C(C)=O)CC[C@H]2[C@@H]3C=C(C)C4=CC(=O)CC[C@]4(C)[C@H]3CC[C@@]21C [Megestrol acetate] (stock concentration (mM, diluted 1:100): 10)",
    "Tested Target": "S. cerevisiae AD1-9 (efflux-pump deficient), vegetative growth in YPD",
    "growth sensitivity score": 38.5
  },
  {
    "Molecule": "Nc1nc(Cl)nc2c1ncn2[C@@H]1O[C@H](CO)[C@@H](O)[C@H]1O [2-Chloroadenosine] (stock concentration (mM, diluted 1:100): 10)",
    "Tested Target": "S. cerevisiae AD1-9 (efflux-pump deficient), vegetative growth in YPD",
    "growth sensitivity score": -1.1
  }
]
